Molecular target: UniProt:P22455
readout label: IC50 (nM)

{"columns": ["compound", "measured result"],
 "data": [
  ["C=CC(=O)N[C@H]1COC[C@H]1Nc1ncc2cc(-c3c(Cl)c(OC)cc(OC)c3Cl)nc(NCC(C)(C)C)c2n1", 14.5],
  ["C=CC(=O)N[C@H]1CCOC[C@H]1Nc1ncc2cc(-c3c(Cl)c(OC)cc(OC)c3Cl)ccc2n1", 18],
  ["C=CC(=O)Nc1cccc(C)c1Nc1cc2c(=O)[nH]c(-c3c(Cl)c(OC)cc(OC)c3Cl)nc2cn1", 26.1],
  ["C=CC(=O)N[C@H]1COC[C@H]1Nc1ncc2cc(-c3c(F)c(OC)cc(OC)c3F)nc(N3CC(F)(F)C3)c2n1", 4],
  ["C=CC(=O)Nc1cccc(C)c1Nc1cc2c(OC)nc(-c3c(Cl)c(OC)cc(OC)c3Cl)nc2cn1", 105],
  ["C=CC(=O)Nc1cccc(C)c1Nc1cc2c(=O)n(C)c(-c3c(Cl)c(OC)cc(OC)c3Cl)cc2cn1", 13.9],
  ["C=CC(=O)Nc1cccc(C)c1Nc1cc2c(=O)n(CCOC)c(-c3c(Cl)c(OC)cc(OC)c3Cl)nc2cn1", 101],
  ["C=CC(=O)N[C@H]1COC[C@H]1Nc1ncc2cc(-c3c(Cl)c(OC)cc(OC)c3Cl)nc(N3CC4CC(C3)O4)c2n1", 5.2],
  ["C=CC(=O)N[C@H]1COC[C@H]1Nc1ncc2cc(-c3c(F)c(OC)cc(OC)c3F)ncc2n1", 303],
  ["C=CC(=O)N[C@H]1COC[C@H]1Nc1cc2cnc(-c3c(Cl)c(OC)cc(OC)c3Cl)cc2cn1", 61.6],
  ["C=CC(=O)N[C@H]1CCOC[C@H]1Nc1ncc2cc(-c3c(F)c(OC)cc(OC)c3F)nc(N3CCC3)c2n1", 3.1],
  ["[2H]C([2H])([2H])Oc1cc(OC([2H])([2H])[2H])c(Cl)c(-c2cc3cnc(N[C@@H]4COC[C@@H]4NC(=O)C=C)nc3c(NCC3CC3)n2)c1Cl", 7.7],
  ["C=CC(=O)N[C@H]1COC[C@H]1Nc1ncc2cc(-c3c(Cl)c(OC)cc(OC)c3Cl)ncc2n1 (racemic)", 80.5],
  ["C=CC(=O)N[C@H]1COC[C@H]1Nc1ncc2cc(-c3c(Cl)c(OC)cc(OC)c3Cl)nc(N3CC(F)(F)C3)c2n1", 4.5]
]}

* * *

The listing below reports IC50 for compounds tested on FGFR4 (Homo sapiens).
Sequence (P22455 22-802): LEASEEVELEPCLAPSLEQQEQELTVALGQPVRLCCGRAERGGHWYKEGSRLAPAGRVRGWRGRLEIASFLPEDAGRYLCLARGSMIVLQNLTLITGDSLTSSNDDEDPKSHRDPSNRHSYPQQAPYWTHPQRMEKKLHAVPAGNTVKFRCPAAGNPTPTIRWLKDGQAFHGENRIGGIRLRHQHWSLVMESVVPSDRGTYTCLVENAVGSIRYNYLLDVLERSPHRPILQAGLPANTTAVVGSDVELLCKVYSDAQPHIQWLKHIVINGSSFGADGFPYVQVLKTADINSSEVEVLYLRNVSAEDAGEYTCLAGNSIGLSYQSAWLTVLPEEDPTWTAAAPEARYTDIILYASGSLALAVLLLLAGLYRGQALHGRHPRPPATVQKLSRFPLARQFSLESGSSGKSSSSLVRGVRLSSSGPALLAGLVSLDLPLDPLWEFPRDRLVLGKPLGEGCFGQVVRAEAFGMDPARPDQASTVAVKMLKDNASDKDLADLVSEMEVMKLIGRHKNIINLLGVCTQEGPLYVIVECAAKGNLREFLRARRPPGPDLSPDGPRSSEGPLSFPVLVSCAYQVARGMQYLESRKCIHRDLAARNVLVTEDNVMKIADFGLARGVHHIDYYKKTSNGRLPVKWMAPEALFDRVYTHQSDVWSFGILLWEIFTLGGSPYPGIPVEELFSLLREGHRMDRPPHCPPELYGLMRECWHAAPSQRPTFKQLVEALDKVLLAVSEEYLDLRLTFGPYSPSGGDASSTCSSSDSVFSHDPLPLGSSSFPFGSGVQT

{"columns": ["compound", "IC50 [nM]"],
 "data": [
  ["C=CC(=O)N[C@H]1CCOC[C@H]1Nc1ncc2cc(-c3c(F)c(OC)cc(OC)c3F)nc(NCC)c2n1 [Example 787]", 45],
  ["C=CC(=O)N[C@H]1COC[C@H]1Nc1ncc2cc(-c3c(Cl)c(OC)cc(OC)c3Cl)nc(N3CC4(COC4)C3)c2n1 [Example 668]", 14.7],
  ["C=CC(=O)N[C@H]1COC[C@H]1Nc1ncc2cc(-c3c(Cl)c(OC)cc(OC)c3Cl)nc(OC)c2n1 [Example 423]", 31.7],
  ["C=CC(=O)N[C@H]1COC[C@H]1Nc1ncc2cc(-c3c(Cl)c(OC)cc(OC)c3Cl)nc(NCCOC)c2n1 [Example 422]", 22.5],
  ["C=CC(=O)N[C@H]1COC[C@H]1Nc1ncc2cc(-c3c(Cl)c(OC)cc(OC)c3Cl)nc(NC3CCOCC3)c2n1 [Example 444]", 7],
  ["C=CC(=O)N[C@H]1COC[C@H]1Nc1ncc2cc(-c3c(Cl)c(OC)cc(OC)c3Cl)nc(NC[C@@H]3CCCO3)c2n1 [Example 438B]", 9.1],
  ["C=CC(=O)N[C@H]1COC[C@H]1Nc1ncc2cc(-c3c(Cl)c(OC)cc(OC)c3Cl)nc(NC3CC(F)(F)C3)c2n1 [Example 452]", 42.2]
]}
